B1: ADD1 (parent)
chain: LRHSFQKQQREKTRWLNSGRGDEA

- Variants of: B1
- Measurement Notes: protein stability index of a GFP-peptide fusion (GPS, HEK-293T) (PSI 1-6); higher = more stable;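 note: lentivirally expressed fusions sorted by FACS into six bins by GFP to DsRed ratio, PSI derived from sequencing read proportions per bin multiplied by bin number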
- Experimental Setup: c terminus: a fixed tail appended
Quick reference: protein stability index of the listed items.
Recorded Endpoint: protein stability index

> print(dat)
     var  quantitative.result
 1  R14A                 3.58
 2  R10E                 4.67
 3   L1T                 4.32
 4   S4E                 3.86
 5   Q9W                 2.94
 6  A24R                 3.93
 7   K7V                 3.38
 8  R20Q                 3.95
 9  S18H                 3.19
10  K12R                 3.88
11  R20V                 3.88
12   Q6D                 4.37
13  K12Y                 3.48
14  E23T                 3.48
15  E11K                 3.17
16  S18G                 3.92
17   F5Q                 4.19
18  N17T                  3.4
19   S4G                 3.45
20  G19A                 3.82
21   S4Y                 2.45
22   Q6P                 4.11
23  L16W                 2.35
24  R10M                 3.44
25   K7S                 4.24
26   Q6M                 3.49
27   H3G                 3.93
28  S18Y                 3.79
29  D22Q                 3.74
30  K12M                 3.42
31   R2W                 2.92
32   H3K                 3.75
33  S18Q                 3.55
34  S18W                 3.51
35   Q8N                 3.15
36  A24Y                 3.18
37  G19C                 2.22
38   R2N                  4.3
39  S18C                 3.26
40  E11I                 2.21
41   R2K                 3.71
42   F5S                 4.17
43  G21S                 3.63
44   Q8S                 3.63
45  E11N                 2.57
46   S4C                 3.01

Source listed as the supplement of paper PMC10567573.
